- protocol_description: NCI Yeast Anticancer Drug Screen. Data for the cln2 rad14 strain (AID 165);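 further: 0% = growth equal to vehicle treated cultures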
- condition_label: S. cerevisiae cln2 rad14 strain, at 50.0 µM
- Protocol: Growth inhibition of yeast strains with defined genetic alterations is measured as a screen for potential anti-cancer activity. Selected strains with alterations in DNA damage repair or cell cycle control were exposed to compounds and growth inhibition was measured relative to vehicle treated controls. The strain used in this assay is cln2 rad14
About 79,000 compounds went through this panel and 15% of them were active in at least one assay; those are over-represented in the sample as a whole. Activity calls are given as the source filed them. No stated cut-off is given here; in the data, active means growth inhibition above about 70%; inactive means the rest.
I would appreciate it if you answered using one of these outcomes: label 1 for active, label 0 for inactive

>>> print(df.to_string())
                                   molecule    class
0  CCOC(=O)C1(Cc2ccc3c(c2)CCC3)Cc2cc3c(cc2C1=O)CCC3 (configuration not stated)  label 0
1  COc1cc(CNc2ccc3nc4n(c(=O)c3c2)CCCCC4)cc(OC)c1OC  label 0
2  Cc1ccc2c(c1)CC1(C2=O)[C@H](c2ccccc2)C2C(=O)c3ccc(C)cc3C2[C@H]1c1ccccc1 (some centres not stated)  label 0
3  CCOC(=O)C(OCC1CC=CCC1)Sc1ccccc1 (configuration not stated)  label 0
4  COC1OC(OC2OC=C3C(=O)OC4CC(C)C2C34)C(O)C(O)C1O (configuration not stated)  label 0

IN: Answer briefly: the call reported for CCOC1C[C@H]2C[C@H]3[C@@H]4CC=C5C[C@@H](OC(C)=O)CC[C@]5(C)[C@H]4CC[C@]3(C)C2=C(C)O1 (some centres not stated) in this assay.
OUT: label 0

IN: Outcome? `Cc1c([N+](=O)[O-])ccc2c1C(=O)c1ccccc1C2=O`
OUT: label 0

IN: Hi team, can someone confirm the assay call for `C1CCCC2(CCC1)OCCO2` ?
OUT: label 0

IN: Tell me the assay call for `O=C(NNC(=S)Nc1ccc(S(=O)(=O)N2CCCCC2)cc1)c1ccncc1` please.
OUT: label 0

IN: Dear colleague, could you share the recorded outcome for `C[N+](C)(CCCN1C(=O)c2cccc3c(Br)ccc(c23)C1=O)Cc1ccc(Cl)c(Cl)c1` when you have a moment?
OUT: label 1

IN: Per the assay record, what outcome was assigned to `COc1cccc(OC)c1OC(=O)/C=C\C(=O)Oc1c(OC)cccc1OC` ?
OUT: label 0

IN: Status in this test for CCN(CC)CCCC(C)NC1CCCc2cc3c(cc21)C(=O)c1ccccc1C3=O (configuration not stated) ?
OUT: label 0

IN: Assay result, entry `O=C(N(CCc1ccc(O)cc1)Cc1ccc2c(c1)OCO2)C(F)(F)F` — outcome?
OUT: label 1

IN: Test call, this molecule: `COc1ccc(N)nn1`
OUT: label 0

IN: What outcome does the record of this test show for Nc1nc2c(c(=O)[nH]1)C(c1ccccc1)C(c1ccccc1)C2 (configuration not stated) ?
OUT: label 0

IN: Please state the recorded outcome for this molecule: `Cc1ccc2nc(Nc3nc(C)cc(C)n3)[nH]c2c1`
OUT: label 0

IN: Write down the call the test reported for this molecule. Item: CC(=O)OC1C=CC(OC(C)=O)C2C1[C@H]1C3C=CC=CC3[C@@H]2S1=O (some centres not stated)
OUT: label 0

IN: Call for entry `COc1cc(/C=C(\OC(C)=O)c2ccc3c(c2)OCO3)cc(OC)c1OC` :
OUT: label 0

IN: Which result was noted for this molecule in the test: `CSc1nc(=O)[nH]c2c1[nH]c(=O)n2-c1ccccc1`
OUT: label 0

IN: GET /call?item= `Cc1ccc(S(=O)(=O)Nn2nnnc2N)cc1` returns the recorded outcome of this test.
OUT: label 0

IN: Test call, this molecule: `COc1cccc(/C(C=O)=C(\Cl)c2ccc(OC)c(OC)c2)c1`
OUT: label 0

IN: For CC(=O)OC1CCC2(C)C(=CC=C3C4CCC(=O)NC4(C)CCC32)C1 (configuration not stated) , what call appears in the results of this test?
OUT: label 0
